Test system: RXF 393 renal
Assay: NCI tumour cell line growth inhibition, 48 h
Catalogue of GI50 readings, one per entry.

Examples with their reported GI50 follow.
| MOLECULE | TGT | RECORDED VALUE |
| --- | --- | --- |
| O=C(CI)Nc1ccc(Br)cc1 | RXF 393 renal | 1.7 µM |
| CN(C)c1ccc2[nH]c3c(C(N)=O)cc(=O)c(=O)c=3oc2c1 | RXF 393 renal | 1.89 µM |
| O=C1Cc2cc(CCN3CCNCC3)c(Cl)cc2N1 | RXF 393 renal | 6.89 µM |
| FC(F)(F)c1cccc(-c2[nH]ncc2-c2nnnn2-c2ccccc2)c1 | RXF 393 renal | 2.91 µM |
| CCCCCCCCN=C(NCCCCCCCC)SCc1cccc2ccccc12 | RXF 393 renal | 1.42 µM |

--- query ---
Req: Please report GI50 for the following molecule: Cn1c(I)c(C#C[Si](C)(C)C)c(=O)[nH]c1=O
Resp: 0.639 µM

====

System: OVCAR-8 ovarian
Assay: NCI tumour cell line growth inhibition, 48 h
Overview of recorded TGI for various compounds
Your answer should be a plain number; it is taken to be in µM.

| MOLECULE | VALUE UNIT | RECORDED VALUE |
| --- | --- | --- |
| Cn1c(I)c(C#C[Si](C)(C)C)c(=O)[nH]c1=O | µM | 25.6 |

Req: Give measured TGI for CC(=O)c1c(C)c2cnc(Nc3ccc(N4CCNCC4)cn3)nc2n(C2CCCC2)c1=O (OVCAR-8 ovarian).
Resp: 28.7

====

Tested on: ACHN renal
Experiment: NCI tumour cell line growth inhibition, 48 h
The entries below come with measured TGI values attached.

Use these answered entries as a reference point.
| COMPOUND | RECORDED VALUE |
| --- | --- |
| CSc1ncc2c(n1)-c1ccccc1OC2 | > 100 µM |
| C[C@]12CCC(=O)C[C@@H]1CC[C@@H]1[C@@H]2CC[C@]2(C)[C@@H](OC(=O)N(CCCl)N=O)CC[C@@H]12 | 11.7 µM |
| N#COc1ccc(Oc2ccc(OC#N)cc2)cc1 | > 100 µM |

Req: Query TGI for COC(=O)c1c(O)ccc2c1c1c(n2Cc2cccc(C)c2)C(=O)c2ccccc2C1
Resp: > 75 µM

Req: Provide measured TGI value, entry: O=C(NCCNCCO)c1ccc(Nc2nc3ccccc3c3occc23)cc1
Resp: 27.3 µM

Req: Supply recorded TGI for O=C1CN(c2cccc(C(F)(F)F)c2)C(=O)CN1CCN1CC(=O)N(c2cccc(C(F)(F)F)c2)CC1=O here.
Resp: > 100 µM

Req: For the compound Cc1ccnc(Nc2[nH]c(C(=O)c3ccc(Cl)cc3)c(N)c2C(=S)Nc2ccccc2)c1 , give its reported TGI.
Resp: 55.8 µM

Req: Specify measured TGI for CCN(CC)CCC1CCCCN1CC(=O)N1c2cc(Cl)ccc2NC(=O)CC1C (stereo not drawn) .
Resp: > 100 µM

Req: Determine its reported TGI: CCOC(=O)N1CCC2(CC1)C[C@@](C(C)=O)(c1ccccc1)C(C)O2 (stereo partly drawn)
Resp: > 100 µM

Req: # return recorded TGI for input COc1ccc([C@H]2CC3C(=O)N(c4ccc(OC)cc4)C(=O)C3c3[nH]c4ccccc4c32)cc1 (stereo partly drawn)
Resp: > 100 µM

Req: Please give the documented TGI of CN1C(=O)C23CCCC2CC1(c1ccccc1)S3 (stereo not drawn)
Resp: > 100 µM

Req: Answer with reported TGI of COc1ccc(-c2c(-c3ccc(C#N)c(F)c3)nc(N3CCC(N)CC3)n(C)c2=O)cc1F
Resp: 41.5 µM

Req: Name the recorded TGI of the compound listed here: O=C1[C@@H]2C(c3ccccc3[N+](=O)[O-])=NO[C@@H]2C(=O)N1c1ccc(Cc2ccc(N3C(=O)[C@H]4C(c5ccccc5[N+](=O)[O-])=NO[C@H]4C3=O)cc2)cc1
Resp: > 100 µM

====

Tested on: PC-3 prostate
Test: NCI tumour cell line growth inhibition, 48 h
Decision: TGI >= 10 µM yields rule met, all other cases yield rule not met.

Req: Quick check, TGI >= 10 µM? O=C1Nc2ccc(Br)cc2/C1=N/N1C(=O)C(=O)N(C2CCCCC2)C1=S
Resp: rule met

====

Tested on: CAKI-1 renal
Test: NCI tumour cell line growth inhibition, 48 h
ASSAY METRIC: TGI

# example entries with known answers
| MOLECULE | TGI |
| --- | --- |
| N#CC(/C(CCCC(=O)Nc1cccc([N+](=O)[O-])c1)=N\NC(=O)c1c(O)ccc2ccccc12)c1nc2ccccc2s1 (configuration not stated) | > 100 µM |
| COc1ccc([I+]c2ccc(OC)cc2)cc1 | > 100 µM |
| N#CC1=C(N)N(/N=C/c2ccco2)C(c2ccco2)C1(C#N)C#N (configuration not stated) | 37.9 µM |

// moving on: another record for TGI
Req: Find the measured TGI of CCOC(=O)NN(C(=O)OCC)C(C(=O)c1ccccc1)N(NC(=O)OCC)C(=O)OCC with CAKI-1 renal as test system.
Resp: > 100 µM

====

Entries annotated with measured log10 of TGI
Tested on: KM12 colon
Test: NCI tumour cell line growth inhibition, 48 h
// units: µM (pre-log); metric: TGI; scale: log10

| MOLECULE | log10 of TGI |
| --- | --- |
| CC1(C)C(=O)/C=C\C(=O)C(C)(C)C(=O)/C=C\C(=O)C(C)(C)C2=CC=C(O2)C(C)(C)C(=O)/C=C\C1=O | 1.30 |

Req: Tell me measured log10 of TGI for CCSc1nc(N/N=C/c2cccs2)c2cnn(CO)c2n1 please.
Resp: 1.09

Req: Provide one value: measured log10 of TGI of N#CC1=C(N)OC2=C(CCOc3c2ccc2ccccc32)C1c1ccc(Br)cc1 (stereo unspecified)
Resp: 1.54

Req: Write down log10 of TGI measured for item CC1=C[C@@H]2c3c(c(O)c(O)c4oc5cc(O)cc(O)c5c(=O)c34)[C@@H](c3cc(O)c(O)c4oc5cc(O)cc(O)c5c(=O)c34)[C@@H]2C(C)(C)C1
Resp: 1.09

Req: Provide measured log10 of TGI value, entry: C=C(C)C(=O)Nc1ccc(-c2c(-c3ccc(Oc4nccc(C)n4)c(F)c3)c3c(N)ncnc3n2C)cc1
Resp: 1.23

Req: Tell me its log10 of TGI given COC(=O)C1(Cc2ccccc2)Cc2cc3c(cc2C1O)CCC3 (stereo unspecified) as the entry.
Resp: 1.68

Req: Answer with reported log10 of TGI of COc1ccc2c(c1)C(=O)c1c-2n(CCCN(C)C)c(=O)c2cc([N+](=O)[O-])ccc12
Resp: -0.25

Req: Supply measured log10 of TGI of O=C(Oc1c(Cl)cc(Cl)cc1Cl)c1ccccc1Nc1ccnc(C(F)(F)F)c1 in your reply.
Resp: 1.51

====

System: NCI/ADR-RES ovarian
Assay: NCI tumour cell line growth inhibition, 48 h
Reported TGI is given for each of the following compounds.
Provide only the numeric value, understood in µM.

| COMPOUND | TGI, µM |
| --- | --- |
| COc1ccc(Nc2nc(N)c(C(=O)c3ccc(Cl)cc3)s2)cc1 | 29.7 |

Req: Dear colleague, please send me the reported TGI for COc1cc(C(=O)O[C@H](C(=O)NCCCCNC(=O)[C@@H](OC(=O)c2cc(OC)cc3c(C)cccc23)[C@]2(C)CO2)[C@]2(C)CO2)c2cccc(C)c2c1 when you can.
Resp: 0.904

Req: For the compound Cc1cc(N2CCOCC2)nc(NCc2cc(Nc3ccnc4cc(Cl)ccc34)ccc2F)n1 , give its measured TGI value.
Resp: 3.31

Req: In one line, give reported TGI of the entry COc1ccc2nc3ccccc3c(NCCNCC(C)O)c2c1 (centres undefined) .
Resp: 39.4

Req: Specify reported TGI for the compound shown: COC(=O)c1c2c(cc3c1CC1(Cc4ccccc4C1)C3)CCC2
Resp: 96.1

Req: State its TGI: CC(C)(C)[Si](C)(C)OC1[C@@H](COC(=O)NC(=O)CCl)O[C@@H](n2cnc3c(N)ncnc32)[C@H]1O[Si](C)(C)C(C)(C)C (some centres undefined)
Resp: 12.2

====

Test system: SF-539 CNS
Test: NCI tumour cell line growth inhibition, 48 h
ASSAY METRIC: log10 TGI (log10 of the value in µM)
Scale type: logarithmic (base 10). Underlying TGI unit: µM.

Solved cases below.
| MOLECULE | RECORDED VALUE |
| --- | --- |
| COc1ccc(Nc2nc(N)c(C(=O)c3ccc(Cl)cc3)s2)cc1 | -0.74 |
| O=c1c2c3c(sc2nc2n1NC=NN2)CCCC3 | 1.57 |

Req: Please give the documented log10 TGI of COc1ccc2nc3ccccc3c(NCCNCC(C)O)c2c1 (stereo not given)
Resp: 0.31

Req: Tell me its log10 TGI given COc1ccc(/C=C/c2ccnc3ccccc23)cc1OC as the entry.
Resp: 1.48

Req: Supply measured log10 TGI of C[C@]12CCC(=O)C[C@@H]1CC[C@@H]1[C@@H]2CC[C@]2(C)[C@@H](OC(=O)N(CCCl)N=O)CC[C@@H]12 in your reply.
Resp: 0.67

Req: Let me know recorded log10 TGI for N#CC(/C(CCCC(=O)Nc1cccc([N+](=O)[O-])c1)=N\NC(=O)c1c(O)ccc2ccccc12)c1nc2ccccc2s1 (stereo not given) , thanks.
Resp: 1.82

Req: Specify measured log10 TGI for S=C(SSC(=S)N1CCCCC1)N1CCCCC1 .
Resp: 1.51

Req: In one line, give reported log10 TGI of the entry CCN(CC)c1ccc(C2N3CCCCC3[C@@H]3c4[nH]c5ccccc5c4CCN23)cc1 (stereo not given in full) .
Resp: 1.62

Req: Supply recorded log10 TGI for COC(=O)CC1=C(C)/C(=C/c2[nH]c(-c3ccc[nH]3)cc2OC)N=C1C here.
Resp: 0.36

Req: Check the records and state log10 TGI for O=C(NC1=C(Cl)C(=O)c2ccccc2C1=O)C(=O)C(C(=O)c1ccc2ccccc2c1)C1OC(=O)c2ccccc21 (stereo not given)
Resp: 0.98
